- test_system: human α1β1 integrin (human), P56199
- Sequence (P56199 29-1179, chain 1 of 2): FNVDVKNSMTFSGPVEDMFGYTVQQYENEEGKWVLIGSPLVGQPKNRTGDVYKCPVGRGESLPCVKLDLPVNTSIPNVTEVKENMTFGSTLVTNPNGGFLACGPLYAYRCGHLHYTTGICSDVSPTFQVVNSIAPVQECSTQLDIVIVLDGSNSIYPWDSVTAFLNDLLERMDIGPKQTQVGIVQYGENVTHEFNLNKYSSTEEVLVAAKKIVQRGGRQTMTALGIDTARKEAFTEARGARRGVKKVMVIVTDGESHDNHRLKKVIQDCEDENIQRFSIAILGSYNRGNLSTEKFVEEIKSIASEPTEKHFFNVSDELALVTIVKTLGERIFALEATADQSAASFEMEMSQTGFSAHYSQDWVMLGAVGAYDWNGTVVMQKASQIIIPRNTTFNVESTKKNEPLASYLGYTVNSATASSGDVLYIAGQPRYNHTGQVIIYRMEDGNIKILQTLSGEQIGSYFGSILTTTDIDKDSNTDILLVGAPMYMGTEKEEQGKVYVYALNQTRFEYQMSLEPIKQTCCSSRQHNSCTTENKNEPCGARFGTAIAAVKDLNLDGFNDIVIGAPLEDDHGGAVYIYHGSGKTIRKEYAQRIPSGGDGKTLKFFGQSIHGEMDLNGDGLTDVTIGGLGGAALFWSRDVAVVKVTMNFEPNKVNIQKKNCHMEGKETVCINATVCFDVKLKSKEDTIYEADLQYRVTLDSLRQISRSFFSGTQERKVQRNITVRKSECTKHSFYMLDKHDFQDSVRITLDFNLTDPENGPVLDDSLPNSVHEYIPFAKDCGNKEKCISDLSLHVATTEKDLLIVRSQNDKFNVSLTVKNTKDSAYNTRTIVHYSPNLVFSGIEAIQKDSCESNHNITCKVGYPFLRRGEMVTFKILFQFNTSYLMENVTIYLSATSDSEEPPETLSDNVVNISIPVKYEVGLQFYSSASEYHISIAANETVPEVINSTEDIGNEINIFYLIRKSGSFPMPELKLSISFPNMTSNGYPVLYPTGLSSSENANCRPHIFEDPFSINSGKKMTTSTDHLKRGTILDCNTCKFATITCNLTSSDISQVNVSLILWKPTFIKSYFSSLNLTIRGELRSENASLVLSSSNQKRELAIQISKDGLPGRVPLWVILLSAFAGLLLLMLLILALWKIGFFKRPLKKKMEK
- Sequence (P05556 21-798, chain 2 of 2, further chain): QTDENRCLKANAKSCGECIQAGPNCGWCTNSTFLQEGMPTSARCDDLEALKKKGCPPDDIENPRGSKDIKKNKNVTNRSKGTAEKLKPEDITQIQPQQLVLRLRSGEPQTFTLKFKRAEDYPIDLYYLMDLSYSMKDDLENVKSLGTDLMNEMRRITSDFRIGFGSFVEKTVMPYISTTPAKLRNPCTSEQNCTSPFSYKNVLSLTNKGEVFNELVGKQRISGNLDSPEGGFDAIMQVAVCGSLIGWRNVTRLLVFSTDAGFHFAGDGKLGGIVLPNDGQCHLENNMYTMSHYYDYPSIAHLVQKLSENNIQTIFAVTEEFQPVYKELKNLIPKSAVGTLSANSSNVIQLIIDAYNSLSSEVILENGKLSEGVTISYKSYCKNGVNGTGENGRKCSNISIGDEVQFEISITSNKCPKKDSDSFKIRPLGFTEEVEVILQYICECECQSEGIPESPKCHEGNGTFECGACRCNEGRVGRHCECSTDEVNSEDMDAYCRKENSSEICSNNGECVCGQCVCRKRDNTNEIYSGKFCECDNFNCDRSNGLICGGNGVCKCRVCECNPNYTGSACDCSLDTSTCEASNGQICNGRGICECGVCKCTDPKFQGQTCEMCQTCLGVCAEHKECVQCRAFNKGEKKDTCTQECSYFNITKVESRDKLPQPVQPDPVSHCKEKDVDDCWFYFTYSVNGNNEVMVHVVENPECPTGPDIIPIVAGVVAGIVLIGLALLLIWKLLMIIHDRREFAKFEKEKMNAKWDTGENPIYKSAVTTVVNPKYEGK
- protocol_notes: inhibition of adhesion of α1K562 cells to collagen I
Each item that follows carries a reported pIC50.
Value format note: pIC50 is -log10 of concentration (mol/L); just state the number.

CTTGPCCRQCKLKPAGTTCWKTSLTSHYCTGKSCDCPLYPG (modifications not checked) [obtustatin] | 9.30

Item: CTTGPCCRQCKLKPAGTTCWKTSRTSHYCTGKSCDCPVYQG (modifications not checked) [viperisrastatin] | pIC50: 10.70
